- target.entity: T1, UBE2D2^(S22R C85K)–Ub (UniProt P62837 2-147; P0CG48 1-76, S22R | C85K)
- T1 construct: UBE2D2 with S22R and C85K, conjugated to ubiquitin; ubiquitin (Ub), conjugated to UBE2D2; also called UBE2D2–Ub; UBE2D2–Ub conjugate; source: purified as described previously (Buetow et al, 2015)
- protocol.text: SPR; Biacore T200, 25°C; GST-MDM2 variants captured on anti-GST nanobodies on CM-5 chips (about 500 RU), GST as control; UBE2D2–Ub as analyte, seven twofold dilutions from 100 μM; 25 mM Tris-HCl pH 7.6, 300 mM NaCl, 0.5 mM TCEP, 0.005% Tween-20; steady-state affinity
- test.settings: both partners purified

[
  {
    "binder": "GST-tagged MDM2^419-C containing the RING domain (domain or fragment, UniProt Q00987 419-491, looked up, MDM2, residues 419 to the C-terminus (RING domain); TEV site between GST and MDM2 (modified pGEX-4T-1); the oligomeric state of the GST fusion was not measured here; also called GST-MDM2^RING; MDM2^RING; source: E. coli BL21-DE3; co-expressed with His-GFP-MDM2^220-334, in lysate (pull-down); not shown: GST, N-terminal, kept) TQDKEESVESSLPLNAIEPCVICQGRPKNGCIVHGKTGHLMACFTCAKKLKKRNKPCPVCRQPIQMIVLTYFP",
    "Kd (µM)": 14.5
  }
]
